- tgt: UniProtKB P01112
- Sequence (P01112 whole entry, looked up): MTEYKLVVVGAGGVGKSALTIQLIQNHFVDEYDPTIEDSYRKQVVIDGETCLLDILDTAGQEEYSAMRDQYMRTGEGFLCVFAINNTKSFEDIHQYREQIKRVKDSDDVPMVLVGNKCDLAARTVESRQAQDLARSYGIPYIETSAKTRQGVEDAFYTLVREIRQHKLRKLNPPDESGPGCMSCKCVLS
- experiment notes: activated H-Ras mutant GTP-binding inhibitors, SAR follow-up, biochemical, multiplex bead flow cytometry, round 2 (AID 588628)
- conditions: bead-based flow cytometry, Bodipy-FL-GTP binding, EDTA
measured property: EC50

Requested read-out EC50, target or system UniProtKB P01112, entry O=C(NC(=S)Nc1sc2c(c1C(=O)O)CC1(CCCC1)OC2)c1ccccc1
0.033 µM

Please give the result for CC1(C)Cc2c(sc(NC(=O)NC(=O)c3ccccc3)c2C(=O)O)CO1 too.
0.824 µM

Same for COc1ccc(C(=O)NC(=S)Nc2sc3c(c2C(=O)O)CC(C)(C)OC3)cc1
0.276 µM

// repeat for CCC1(C)Cc2c(sc(NC(=S)NC(=O)c3ccccc3)c2C(=O)O)CO1 (stereo not given) and report
0.035 µM

Now this one: COc1cccc(C(=O)NC(=S)Nc2sc3c(c2C(=O)O)CC(C)(C)OC3)c1
0.205 µM

Also check CC1(C)Cc2c(sc(NC(=S)NC(=O)c3ccccc3Br)c2C(=O)O)CO1
1.21 µM

Next compound: Cc1ccccc1C(=O)NC(=S)Nc1sc2c(c1C(=O)O)CC(C)(C)OC2
0.379 µM

What about CC1(C)Cc2c(sc(NC(=S)NC(=O)c3ccccc3F)c2C(=O)O)CO1 ?
0.283 µM

Try the compound Cc1ccc(C(=O)NC(=S)Nc2sc3c(c2C(=O)O)CC(C)(C)OC3)cc1
0.178 µM

Entry to check: CC1(C)Cc2c(sc(NC(=S)NC(=O)c3ccccc3)c2C(=O)O)CO1
0.021 µM

Continue with CC1(C)Cc2c(sc(NC(=S)NC(=O)c3ccc(F)cc3)c2C(=O)O)CO1
0.091 µM

Another compound to look at: Cc1cccc(C(=O)NC(=S)Nc2sc3c(c2C(=O)O)CC(C)(C)OC3)c1
0.854 µM

CC1(C)CCc2sc(NC(=S)NC(=O)c3ccccc3)c(C(=O)O)c2C1 , same question.
0.053 µM

Try this compound too: CC1(C)Cc2c(sc(NC(=S)NC(=O)C3CCCCC3)c2C(=O)O)CO1
0.585 µM

Would you kindly repeat that for CC1(C)Cc2c(sc(NC(=S)NC(=O)c3ccco3)c2C(=O)O)CO1 ?
0.065 µM
